- Tested on: Fibroblast
- test: Multiplex assay against human fibroblast
- Assay type: toxicity, cell-based
- condition: 48 h, 10 µM, compound concentration 10 uM, replicate 2
Could you label it Yes if measured Population Healthy Nuclei (%) is 60% or higher, and No otherwise?

Ask | Record "O=C(Nc1ccc(Cl)cc1)Nc1cccc(-c2cccc(N3CCCC3)n2)c1" ; criterion: Population Healthy Nuclei (%) no lower than 60%. Met?
Reply | No

More entries:
Ask | Record "Cl.O=C(c1ccc(Nc2nccc(-c3cc4ccccc4s3)n2)cc1)N1CCC(N2CCCC2)CC1" ; criterion: Population Healthy Nuclei (%) no lower than 60%. Met?
Reply | No

Ask | Same question, "O=C(Nc1ccc(-c2ccnc(Nc3ccc(N4CCOCC4)cc3)n2)cc1)[C@@H]1CCCN1" this time
Reply | Yes

Ask | Same question, "O=C1N/C(=N/c2ccccc2F)S/C1=C\c1ccc(C(=O)O)cc1" this time
Reply | Yes

Ask | Same question, "CN1CCN(C(=O)C(C)(C)c2ccc(C(=O)Nc3cn4cc(-c5ccncc5)ccc4n3)cc2)CC1" this time
Reply | No

Ask | Same question, "CCN1CCN(Cc2ccc(Nc3ncc(F)c(-c4cc(F)c5nc(C)n(C(C)C)c5c4)n3)nc2)CC1.CS(=O)(=O)O" this time
Reply | No

Ask | Same question, CN(C)C(=O)C(CCN1CCC(O)(c2ccc(Cl)cc2)CC1)(c1ccccc1)c1ccccc1.Cl [LOPERAMIDE HYDROCHLORIDE] this time
Reply | No

Ask | Same question, "O=C(Nc1ccc(-n2nc(-c3cccnc3)cc2C(F)(F)F)cn1)c1ccc(-c2ccccc2)c(F)c1" this time
Reply | Yes

Ask | Same question, CN1C2CCC1CC(OC(c1ccc(F)cc1)c1ccc(F)cc1)C2.Cl (configuration not stated) this time
Reply | No

----------
- Tested on: HEK-293T
- test: Multiplex assay against HEK293T
- Type: toxicity, cell-based
- condition: human, 12 h, 10 µM, compound concentration 10 uM, replicate 2
metric-name: Total Cell Count
# respond with the number and nothing more

Ask | GET /values?readout=Total Cell Count&item= "COCC(=O)NC/C=C/c1ccc2ncnc(Nc3ccc(Oc4ccc(C)nc4)c(C)c3)c2c1"
Reply | 230

Ask | Same question, "CCOc1cc2ncc(C#N)c(Nc3ccc(OCc4ccccn4)c(Cl)c3)c2cc1NC(=O)/C=C/CN(C)C" this time
Reply | 844

Ask | Same question, "C=C1/C(=C\C=C2/CCC[C@]3(C)[C@@H]([C@H](C)/C=C/[C@H](C)C(C)C)CC[C@@H]23)C[C@@H](O)C[C@@H]1O" this time
Reply | 211

More entries:
Ask | GET /values?readout=Total Cell Count&item= "Cc1cn(-c2cc(NC(=O)c3ccc(C)c(Nc4nccc(-c5cccnc5)n4)c3)cc(C(F)(F)F)c2)cn1"
Reply | 179

----------
- System: U2OS
- test: Multiplex assay against U2OS
- Type: toxicity, cell-based
- condition: human, 24 h, 1 µM, compound concentration 1 uM, replicate 2
metric-name: Population Apoptotic (%)
All answers are understood in %, so give the number only.

Here are 2 compounds together with their reported answers.
Ask | Under U2OS: Population Apoptotic (%) value of "Cc1cc(C)c(S(=O)(=O)N(Cc2ccc(-c3cccc(S(C)(=O)=O)c3)cc2)Cc2ccc(C(F)(F)F)o2)c(C)c1" ?
Reply | 0

Ask | Same question, CN1CCC(=C2c3ccccc3CC(=O)c3sccc32)CC1.O=C(O)/C=C/C(=O)O [KETOTIFEN FUMARATE] this time
Reply | 100

More entries:
Ask | Under U2OS: Population Apoptotic (%) value of "O=C(Nc1ccc(Cl)cc1)Nc1cccc(-c2cccc(N3CCCC3)n2)c1" ?
Reply | 20

Ask | Same question, "CCNc1cc(N[C@H]2CC[C@H](O)CC2)nc(Nc2ccc3c(ccn3Cc3ccccc3)c2)n1" this time
Reply | 70

Ask | Same question, "Cl.Oc1ccc2c3c1O[C@H]1c4[nH]c5c(c4C[C@@]4(O)[C@@H](C2)N(CC2CC2)CC[C@]314)C[C@@]1(O)[C@H]2Cc3ccc(O)c4c3[C@@]1(CCN2CC1CC1)[C@H]5O4" this time
Reply | 25

Ask | Same question, "Cc1ccc2nc(NCCN)c3ncc(C)n3c2c1.O=C(O)C(F)(F)F.O=C(O)C(F)(F)F" this time
Reply | 18

Ask | Same question, "CCCS(=O)(=O)c1nc(NC2CC2)cc(-c2ccc3c(ccn3C3CC(C)(C)NC(C)(C)C3)c2)n1" this time
Reply | 22
